target: human PDI (Homo sapiens (Human)); assay: Insulin turbidimetric assay of PDI reductase activity; format: biochemical; details: Table A; average of two independent experiments; read-out: PDI_Inhibition_ IC50
Sequence (P07237 18-508): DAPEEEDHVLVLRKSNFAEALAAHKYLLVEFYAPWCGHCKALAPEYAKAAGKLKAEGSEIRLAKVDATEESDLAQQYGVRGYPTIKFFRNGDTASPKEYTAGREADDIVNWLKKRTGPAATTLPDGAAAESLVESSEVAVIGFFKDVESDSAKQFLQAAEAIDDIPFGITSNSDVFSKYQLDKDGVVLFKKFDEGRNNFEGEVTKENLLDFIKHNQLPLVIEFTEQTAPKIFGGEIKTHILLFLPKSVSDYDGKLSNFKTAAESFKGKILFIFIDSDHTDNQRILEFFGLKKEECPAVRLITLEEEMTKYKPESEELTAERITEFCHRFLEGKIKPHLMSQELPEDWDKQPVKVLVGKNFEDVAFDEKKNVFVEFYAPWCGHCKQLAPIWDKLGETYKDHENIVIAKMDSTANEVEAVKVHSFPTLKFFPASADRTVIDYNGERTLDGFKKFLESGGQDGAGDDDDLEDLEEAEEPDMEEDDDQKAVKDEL
experimental_readout: log10 IC50 (log10 of the value in µM)
Field: value | Transform: log10 | Quantity: IC50 | Unit: µM

Example cases with answers are listed next.
>  <compound>
CCOC(=O)C1(CCOc2ccccc2)CCN(C(=O)c2ccc(O)c(Cl)c2)CC1 [Compound 9]

>  <log10 IC50>
0.35

$$$$
>  <compound>
CCOC(=O)C1(CCOc2ccccc2)CCN(Cc2ccc(O)c(Cl)c2)CC1 [Compound 1]

>  <log10 IC50>
-0.60

$$$$
>  <compound>
CC(C)OC(=O)C1(CCOc2ccccc2)CCN(Cc2ccc(O)c(Cl)c2)CC1 [Compound 13]

>  <log10 IC50>
-0.07

$$$$
>  <compound>
O=C(NC1CCCC1)C1(CCOc2ccccc2)CCN(Cc2ccc(O)c(Cl)c2)CC1 [Compound 17]

>  <log10 IC50>
0.60

$$$$
>  <compound>
O=C(Nc1ccccc1)C1(CCOc2ccccc2)CCN(Cc2ccc(O)c(Cl)c2)CC1 [Compound 19]

>  <log10 IC50>
1.35

$$$$

# batch: return log10 IC50 for each of the 2 compounds below
1. CC(C)(C)OC(=O)C1(CCOc2ccccc2)CCN(Cc2ccc(O)c(Cl)c2)CC1 [Compound 14]
2. CCN(C)C(=O)C1(CCOc2ccccc2)CCN(Cc2ccc(O)c(Cl)c2)CC1 [Compound 16]

Result block:
[-0.19, 0.48]
